Recorded IC50 for the following compounds
- target.system: human neutrophil elastase (HNE) (Homo sapiens (Human), UniProt P08246)
- Sequence (P08246 30-267): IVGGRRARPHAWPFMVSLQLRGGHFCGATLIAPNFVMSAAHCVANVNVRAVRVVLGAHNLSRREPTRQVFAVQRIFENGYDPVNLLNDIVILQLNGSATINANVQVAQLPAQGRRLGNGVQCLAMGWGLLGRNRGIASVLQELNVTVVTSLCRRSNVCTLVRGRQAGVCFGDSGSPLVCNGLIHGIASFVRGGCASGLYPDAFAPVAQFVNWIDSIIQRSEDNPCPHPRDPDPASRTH
- protocol.details: In vitro HNE inhibition assay (fluorogenic peptide substrate MeOSuc-Ala-Ala-Pro-Val-AMC)
- experimental.setup: HNE concentration of 80 pM; 37° C., 2 hours

CCOC(=O)Nc1nc2n(n1)C(c1ccc(C#N)cc1)C(C(=O)OCC)=C(C)N2c1cccc(C(F)(F)F)c1 (stereo not shown) [Example 50]    < 0.3 nM

Task: Give IC50 for the following compound: CC1=C(C#N)[C@@H](c2ccc(C#N)cc2)n2nc(NC(=O)NCCO)nc2N1c1cccc(C(F)(F)F)c1 [Example 53]
Result: < 0.3 nM

Task: Item CC1=C(C#N)C(c2ccc(C#N)cc2S(C)(=O)=O)n2nc(N3C(=O)c4ccccc4C3=O)nc2N1c1cccc(C(F)(F)F)c1 (racemic) [Example 5] : provide IC50
Result: < 0.3 nM

Task: Indicate its recorded IC50; the compound in question is CCOC(=O)C1=C(C)N(c2cccc(C(F)(F)F)c2)c2nccn2[C@@H]1c1ccc(C#N)cc1 [Example 90]
Result: 6.5 nM

Task: Indicate the recorded IC50 value for this compound: CCOC(=O)C1=C(C)N(c2cccc(C(F)(F)F)c2)c2nc3cncnc3n2C1c1ccc(C#N)cc1 (racemic) [Example 78]
Result: 3 nM

Task: Report measured IC50; entry is CCNc1nc2n(n1)[C@H](c1ccc(C#N)cc1)C(C#N)=C(C)N2c1cccc(C(F)(F)F)c1 [Example 56]
Result: < 0.3 nM

Task: Look up and state reported IC50 for CC1=C(C#N)[C@@H](c2ccc(C#N)cc2S(C)(=O)=O)n2nc(NC(=O)C3CC3)nc2N1c1cccc(C(F)(F)F)c1 [Example 35]
Result: < 0.3 nM

----------
Catalogue of IC50 readings, one per entry.
- target.system: human neutrophil elastase (HNE) (Homo sapiens (Human))
- protocol.details: In vitro HNE inhibition assay (fluorogenic peptide substrate MeOSuc-Ala-Ala-Pro-Val-AMC)
- experimental.setup: HNE concentration of 80 pM; 37° C., 2 hours
Counter-ions that a name gives are not always drawn.

Solved entries (count: 2):
CC1=C(C#N)[C@@H](c2ccc(C#N)cc2S(C)(=O)=O)n2nc(N)nc2N1c1cccc(C(F)(F)F)c1 [Example 9, hydrochloride]    < 0.0003 µM
CC1=C(C#N)[C@@H](c2ccc(C#N)cc2)n2nc(NC(=O)C3CCCCC3)nc2N1c1cccc(C(F)(F)F)c1    < 0.0003 µM

Task: Hello, please tell me recorded IC50 for this one: CC1=C(C#N)C(c2ccc(C#N)cc2)n2nc(C(C)C)nc2N1c1cccc(C(F)(F)F)c1 (racemic)
Result: 0.085 µM

Cited source: patent US8569314B2
